Test system B2 bradykinin receptor (Homo sapiens, UniProt P30411), AC50 listed for each of the compounds. Further: assay procedure not described here.

// worked examples, AC50 included
compound: CN1C(=O)CN=C(c2ccccc2F)c2cc([N+](=O)[O-])ccc21
measuredAttribute: AC50
observedMeasurement: > 30 µM
--
compound: COc1ccc2c3c1O[C@H]1C(=O)CC[C@H]4[C@@H](C2)N(C)CC[C@]314 [HYDROCODONE]
measuredAttribute: AC50
observedMeasurement: > 30 µM
--
compound: CC1Cc2ccccc2N1NC(=O)c1ccc(Cl)c(S(N)(=O)=O)c1 (configuration not stated) [INDAPAMIDE]
measuredAttribute: AC50
observedMeasurement: > 30 µM
--
compound: Cc1ccc(-c2ncc(Cl)cc2-c2ccc(S(C)(=O)=O)cc2)cn1
measuredAttribute: AC50
observedMeasurement: > 30 µM
--
compound: NCC1(CC(=O)O)CCCCC1
measuredAttribute: AC50
observedMeasurement: > 30 µM

Quick note, AC50 for CC(C(=O)O)c1ccc(C(=O)c2ccccc2)s1 (configuration not stated) landed at > 10 µM

Quick note, AC50 for C[C@]12C=CC(=O)C=C1C(Cl)=C[C@@H]1[C@@H]2[C@@H](O)C[C@@]2(C)[C@H]1CC[C@]2(O)C(=O)CO landed at > 3 µM

Quick note, AC50 for CNC1(C)C2CCC(C2)C1(C)C (configuration not stated) landed at > 10 µM

Quick note, AC50 for C=CC1=C(C(=O)O)N2C(=O)[C@@H](NC(=O)/C(=N\O)c3csc(N)n3)[C@H]2SC1 landed at > 30 µM

Quick note, AC50 for C=C(c1ccccc1OCc1cccc(Cl)c1)n1ccnc1 landed at > 30 µM

Quick note, AC50 for C[C@]12C=CC(=O)C=C1CC[C@@H]1[C@@H]2[C@@H](O)C[C@@]2(C)[C@H]1CC[C@]2(O)C(=O)CO landed at > 30 µM
